target system: Artificial Cell Surface (ACS): biotinylated cell surface proteins of PBMCs bound to streptavidin columns
test protocol: trypsin-digested dHSA adsorbed on ACS column, MALDI-TOF ms
# note: boundary value 30% maps to not met; Percent Absorbed below it maps to met

Some solved entries appear below for comparison.
> print(dat)
                                 binder  group.label
1                       KVPQVSTPTLVEVSR      not met
2                             CCTESLVNR          met
3                            FKDLGEENFK          met
4  LCTVATLR [albumin fragment LCTVATLR]      not met
5  DDNPNLPR [albumin fragment DDNPNLPR]          met
6   QNCELFEQLGEYK [albumin fragment O…]          met
7                          AAFTECCQAADK          met

Query binder follows.
Lookup: Determine if YLYEIAR [albumin fragment YLYEIAR] shows Percent Absorbed strictly lower than 30%.
Found: not met
